Reported values of Growth Rate for individual entries
# System: Fibroblast
# experiment notes: Incucyte cell viability with human fibroblast; further: filed as whole numbers so only -1 and 0 and 1 occur
# Format: toxicity, cell-based
# experimental parameters: 18 h, 10 µM, compound concentration 10 uM, replicate number 1, timepoint 18 hours
Could you respond with only the numeric value?

Record excerpt, results attached:
COc1ccc(Cn2ccc3ccc(C(=O)NO)cc32)cc1 :: 1
Nc1c(C(=O)NCc2ccc(C(=O)NCCCC3CCCCC3)cc2)cnn1-c1ccccc1 :: 0
CC(C)C(=O)Nc1n[nH]c2cc(-c3cccc(NS(=O)(=O)C4CC4)c3)ccc12 :: 0
Cn1cncc1[C@@](O)(COc1ccc(C#N)cc1-c1ccc(OC(F)(F)F)cc1)c1ccc(C#N)cc1 :: 0
Cn1cc(-c2[nH]c3cc(NC(=O)[C@H](N)C4CCCCC4)cc4c3c2C=NNC4=O)cn1 :: 1

Identify the measured Growth Rate of O=C1NCN(c2ccccc2)C12CCN(CCCOc1ccc(F)cc1)CC2 [SPIRAMIDE] for Fibroblast.
0

And the next one, CNCCN1CCC(OCc2ccccc2)CC1 ?
0

And the next one, C=CC(=O)Nc1cccc(C(=O)Nc2ccc(Nc3cc(-c4[nH]c(SC)nc4C)ccn3)cc2)c1 ?
1

And the next one, Cc1[nH]c(/C=C2\C(=O)Nc3ccc(S(=O)(=O)N(C)c4cccc(Cl)c4)cc32)c(C)c1C(=O)N1CCN(C)CC1 ?
1

And the next one, CN(C)C(=O)c1ccc(-c2cc(C(=O)N[C@@H]3CCc4ccccc43)no2)cc1O ?
1

And the next one, CC(=O)C1=C(C)N(c2cccc(C(F)(F)F)c2)C(=O)N[C@H]1c1ccc(C#N)nc1 ?
0

And the next one, CN(c1ccnc(CNc2nc(Nc3ccc4c(c3)CC(=O)N4)ncc2C(F)(F)F)n1)S(C)(=O)=O ?
0

And the next one, O=C(NCCN1CCOCC1)c1ccc2c(c1)C(=O)c1ccc(Nc3ccc(F)c(NC(=O)c4ccccc4)c3)cc1CC2 ?
0

And the next one, O=c1nc(-c2ccccn2)sc2ccccc12 ?
0

And the next one, CN([C@@H]1CCc2c(CC(=O)O)c3cc(S(C)(=O)=O)ccc3n2C1)S(=O)(=O)c1ccc(F)cc1 [CRTH2-negative-control] ?
1

And the next one, Cc1cccc(-c2cnc3occ(-c4ccc(C(=O)O)c(C5CCCC5)c4)c3c2)c1 ?
0

And the next one, CCOCCn1cc(C(=O)Nc2ccc(-n3nc(-c4cccnc4)cc3C(F)(F)F)cn2)ccc1=O ?
0

And the next one, CCn1c(=O)c(-c2ccc(Cl)cc2Cl)cc2cnc(Nc3ccc(N4CCNCC4)c(F)c3)nc21 ?
0
